Test system: KMS11 (human myeloma cell line)
Test: Cell proliferation assay (CellTiter-Glo) in KMS11 cells
Format: cell-based
Details: KMS-11, 72 h, Table 5, 3 days, read-out: KMS11-luc EC50
Procedure: KMS11 (human myeloma cell line), were cultured in IMDM supplemented with 10% FBS, sodium pyruvate and antibiotics. Cells were plated in the same medium at a density of 2000 cells per well into 96 well tissue culture plates, with outside wells vacant, on the day of assay. […] After 3 days plates were equilibrated to room temperature and equal volume of CellTiter-Glow Reagent (Promega) was added to the culture wells. The plates were agitated briefly and luminescent signal was measured with luminometer.
quantity: EC50 (nM)
Output spec: scalar in nM, unitless text.

Below, 3 molecules whose answers are already recorded.
- structure-notation: "C[C@H]1C[C@@H](c2ccncc2NC(=O)c2ccc(F)c(-c3c(F)cc(C4=CCCC4)cc3F)n2)C[C@@H](N)[C@]1(C)O"
  tested-system: "KMS11 (human myeloma cell line)"
  measurement: 409
- structure-notation: "C[C@H]1C[C@@H](c2ccncc2NC(=O)c2ccc(F)c(-c3c(F)cc(C4COC4)cc3F)n2)C[C@@H](N)[C@]1(C)O"
  tested-system: "KMS11 (human myeloma cell line)"
  measurement: 84
- structure-notation: "C[C@H]1C[C@@H](c2ccncc2NC(=O)c2ccc(F)c(-c3c(F)cc(OCC(=O)N(C)C)cc3F)n2)C[C@@H](N)[C@]1(C)O"
  tested-system: "KMS11 (human myeloma cell line)"
  measurement: 1400

Okay, now this molecule:
The reported value for "C[C@H]1C[C@@H](c2ccncc2NC(=O)c2ccc(F)c(-c3c(F)cc(C4CC4)cc3F)n2)C[C@@H](N)[C@]1(C)O" in terms of EC50 is 127

---

We begin with a simple list: items and their reported pEC50.
system: KMS11 (human myeloma cell line); assay: Cell proliferation assay (CellTiter-Glo) in KMS11 cells; type: cell-based; conditions: KMS-11, 72 h, Table 5, 3 days, read-out: KMS11-luc EC50
Convention used: pEC50 is expressed as -log10 of the molar concentration.

Solved cases below.
- structure-notation: "C[C@H]1C[C@@H](c2ccncc2NC(=O)c2ccc(F)c(-c3c(F)cc(OCCO)cc3F)n2)C[C@@H](O)[C@]1(C)O"
  pEC50: 6.27
- structure-notation: "C[C@H]1C[C@@H](c2ccncc2NC(=O)c2ccc(F)c(-c3c(F)cc(OCC(F)(F)F)cc3F)n2)C[C@@H](N)[C@]1(C)O"
  pEC50: 6.27
- structure-notation: "C[C@H]1C[C@@H](c2ccncc2NC(=O)c2nc(-c3c(F)cc(C(C)(C)O)cc3F)c(F)cc2N)C[C@@H](O)[C@]1(C)O"
  pEC50: 6.39

Sure, the documented pEC50 for "COCCOc1cc(F)c(-c2nc(C(=O)Nc3cnccc3[C@H]3C[C@@H](O)[C@](C)(O)[C@@H](C)C3)ccc2F)c(F)c1" is 5.50

Briefly, pEC50 measured for "C[C@H]1C[C@@H](c2ccncc2NC(=O)c2nc(-c3c(F)cc(C4(O)CCOCC4)cc3F)sc2N)C[C@@H](N)[C@]1(C)O" : 5.03

Value of measured pEC50 for the entry "Cc1cc(F)c(-c2nc(C(=O)Nc3cnccc3[C@H]3C[C@@H](N)[C@](C)(O)[C@@H](C)C3)c(N)cc2F)c(F)c1" : 7.31

"CSc1cc(F)c(-c2nc(C(=O)Nc3cnccc3[C@H]3C[C@@H](N)[C@](C)(O)[C@@H](C)C3)ccc2F)c(F)c1" has a reported pEC50 of 6.63

For this compound ( "C[C@H]1C[C@@H](c2ccncc2NC(=O)c2ccc(F)c(-c3c(F)cc(C(C)(C)O)cc3F)n2)C[C@@H](N)[C@]1(C)O" ), measured pEC50 is 7.89

---

biological target: Pim2 kinase (Homo sapiens, UniProt Q9P1W9); experiment: Pim2 AlphaScreen assay (high ATP)
Sequence (Q9P1W9 whole entry): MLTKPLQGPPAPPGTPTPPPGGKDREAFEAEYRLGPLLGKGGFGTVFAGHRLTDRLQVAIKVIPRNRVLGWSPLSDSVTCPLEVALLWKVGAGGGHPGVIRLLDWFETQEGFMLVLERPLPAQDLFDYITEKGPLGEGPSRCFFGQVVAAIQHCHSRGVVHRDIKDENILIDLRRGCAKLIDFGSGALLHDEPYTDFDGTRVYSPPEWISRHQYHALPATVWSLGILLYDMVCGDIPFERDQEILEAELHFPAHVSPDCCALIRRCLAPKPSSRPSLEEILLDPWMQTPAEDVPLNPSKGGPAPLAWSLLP
quantity: log10(IC50) (log10 of the value in nM)
// units: nM (pre-log); metric: IC50; scale: log10

Known log10(IC50) results, listed for orientation:
- structure-notation: "COCCOc1cc(F)c(-c2nc(C(=O)Nc3cnccc3[C@H]3C[C@@H](O)[C@](C)(O)[C@@H](C)C3)c(N)cc2F)c(F)c1"
  tested-system: "Pim2 kinase (Homo sapiens, UniProt Q9P1W9)"
  measurement: 2.12
- structure-notation: "COCc1cc(F)c(-c2nc(C(=O)Nc3cnccc3[C@H]3C[C@@H](N)[C@](C)(O)[C@@H](C)C3)ccc2F)c(F)c1"
  tested-system: "Pim2 kinase (Homo sapiens, UniProt Q9P1W9)"
  measurement: 0.64
- structure-notation: "C[C@H]1C[C@@H](c2ccncc2NC(=O)c2ccc(F)c(-c3c(F)cc(C4(C#N)CCOCC4)cc3F)n2)C[C@@H](N)[C@]1(C)O"
  tested-system: "Pim2 kinase (Homo sapiens, UniProt Q9P1W9)"
  measurement: 0.76
- structure-notation: "C[C@H]1C[C@@H](c2ccncc2NC(=O)c2ccc(F)c(-c3c(F)cc4c(c3F)OCC4)n2)C[C@@H](N)[C@]1(C)O"
  tested-system: "Pim2 kinase (Homo sapiens, UniProt Q9P1W9)"
  measurement: 0.18
- structure-notation: "COCCCOc1cc(F)c(-c2nc(C(=O)Nc3cnccc3[C@H]3C[C@@H](N)[C@](C)(O)[C@@H](C)C3)ccc2F)c(F)c1"
  tested-system: "Pim2 kinase (Homo sapiens, UniProt Q9P1W9)"
  measurement: 0.33
- structure-notation: "C[C@H]1C[C@@H](c2ccncc2NC(=O)c2ccc(F)c(-c3c(F)cc(OCCO)cc3F)n2)C[C@@H](O)[C@]1(C)O"
  tested-system: "Pim2 kinase (Homo sapiens, UniProt Q9P1W9)"
  measurement: 2.24
- structure-notation: "C[C@H]1C[C@@H](c2ccncc2NC(=O)c2ccc(F)c(-c3c(F)cc(OC4CCOCC4)cc3F)n2)C[C@@H](O)[C@]1(C)O"
  tested-system: "Pim2 kinase (Homo sapiens, UniProt Q9P1W9)"
  measurement: 2.33
- structure-notation: "C[C@H]1C[C@@H](c2ccncc2NC(=O)c2ccc(F)c(-c3c(F)cc(C(C)(C)O)cc3F)n2)C[C@@H](N)[C@]1(C)O"
  tested-system: "Pim2 kinase (Homo sapiens, UniProt Q9P1W9)"
  measurement: 0.47

Reported log10(IC50) ( "C[C@H]1C[C@@H](c2ccncc2NC(=O)c2ccc(F)c(-c3c(F)cc(C4(F)COC4)cc3F)n2)C[C@@H](N)[C@]1(C)O" ) = 0.81

So, "CC[C@]1(O)[C@H](N)C[C@H](c2ccncc2NC(=O)c2ccc(F)c(-c3c(F)cccc3F)n2)C[C@@H]1C" ? Its log10(IC50) was 0.91

So, "C[C@H]1C[C@@H](c2ccncc2NC(=O)c2nc(-c3c(F)cc(C4CCOCC4)cc3F)sc2N)C[C@@H](N)[C@]1(C)O" ? Its log10(IC50) was 0.30

The molecule identified as "COCCOc1cc(F)c(-c2nc(C(=O)Nc3cnccc3[C@H]3C[C@@H](O)[C@](C)(O)[C@@H](C)C3)ccc2F)c(F)c1" registered its log10(IC50) at 2.40

---

molecular target: UniProtKB Q86V86; assay: Pim3 AlphaScreen assay (high ATP)
Reported IC50 is given for each of the following compounds.
API: value field is a number in nM; no unit string.

See these solved cases before continuing.
- structure-notation: "C[C@H]1C[C@@H](c2ccncc2NC(=O)c2nc(-c3c(F)cc(C4CCOCC4)cc3F)sc2N)C[C@@H](N)[C@]1(C)O"
  output-unit: "nM"
  measurement: 0.32
- structure-notation: "CC(C)Oc1cc(F)c(-c2nc(C(=O)Nc3cnccc3[C@H]3C[C@@H](O)[C@](C)(O)[C@@H](C)C3)ccc2F)c(F)c1"
  output-unit: "nM"
  measurement: 69.2
- structure-notation: "Cc1cc(F)c(-c2nc(C(=O)Nc3cnccc3[C@H]3C[C@@H](N)[C@](C)(O)[C@@H](C)C3)ccc2F)c(F)c1"
  output-unit: "nM"
  measurement: 1.16
- structure-notation: "C[C@H]1C[C@@H](c2ccncc2NC(=O)c2ccc(F)c(-c3c(F)cc(N4CCOCC4)cc3F)n2)C[C@@H](N)[C@]1(C)O"
  output-unit: "nM"
  measurement: 0.41

# IC50 of "CC[C@]1(O)[C@H](N)C[C@H](c2ccncc2NC(=O)c2ccc(F)c(-c3c(F)cccc3F)n2)C[C@@H]1C" = 1.43

Just so you know, measured IC50 for "C[C@H]1C[C@@H](c2ccncc2NC(=O)c2ccc(F)c(-c3c(F)cc(C4CC4)cc3F)n2)C[C@@H](N)[C@]1(C)O" came out at 0.96

---

molecular target: Pim2 kinase (Homo sapiens); test: KinaseGlo Pim2 ATP depletion assay; format: biochemical; settings: Table 4, 5 nM PIM2, 4 μM ATP, 10 μM BAD peptide
quantity: pIC50
The scale used: pIC50 is minus the common logarithm of the concentration in molar units.

Past entries and their recorded results:
- structure-notation: "C[C@H]1C[C@@H](c2ccncc2NC(=O)c2nc(-c3nc(Cl)c(C#N)cc3F)ccc2N)C[C@@H](O)[C@]1(C)O"
  quantity: "pIC50"
  measurement: 7.29
- structure-notation: "C[C@H]1C[C@@H](c2ccncc2NC(=O)c2nc(-c3cc(F)ccn3)ccc2N)C[C@@H](O)[C@]1(C)O"
  quantity: "pIC50"
  measurement: 6.79
- structure-notation: "Cc1ccc(F)c(-c2ccc(N)c(C(=O)Nc3cnccc3[C@H]3C[C@@H](O)[C@](C)(O)[C@@H](C)C3)n2)n1"
  quantity: "pIC50"
  measurement: 7.89

Let us examine a further case.
// "C[C@H]1C[C@@H](c2ccncc2NC(=O)c2nc(-c3c(F)cncc3F)ccc2N)C[C@@H](O)[C@]1(C)O" : pIC50 value = 8.68
